metricName: melting point

1. CCCCn1c(-c2ccc(NC(=O)NCC)cc2)c(C#N)c2ccc(OC)cc21    186 to 188 °C
2. CCn1c(-c2cccc(S(=O)(=O)NC)c2)c(C#N)c2ccc(OC)cc21    160 to 165 °C
3. CCn1c(C#Cc2cccc(N)c2)c(C#N)c2ccc(OC)cc21    150 to 153 °C
4. CCCCn1c(-c2ccc(NC(=O)NC(C)C)cc2)c(C#N)c2ccc(OC)cc21    159 to 162 °C
5. CCn1c(NC(=O)c2cccc(C)c2)c(C#N)c2ccc(OC)cc21    234 to 235 °C
6. CCn1c(-c2ccc3c(c2)CCN3S(=O)(=O)CC)c(C#N)c2ccc(OC)cc21    147 to 150 °C
7. CCn1c(-c2ccc(NC(=O)Cc3ccccc3)cc2)c(C#N)c2ccc(OC)cc21    196 to 198 °C
8. CCOc1ccc2c(C#N)c(-c3ccc(NC(=O)NCCCl)cc3)n(CC)c2c1    205 to 206 °C
